- testedSystem: Cannabinoid receptor 2 (Homo sapiens, UniProt P34972)
- Sequence (P34972 whole entry): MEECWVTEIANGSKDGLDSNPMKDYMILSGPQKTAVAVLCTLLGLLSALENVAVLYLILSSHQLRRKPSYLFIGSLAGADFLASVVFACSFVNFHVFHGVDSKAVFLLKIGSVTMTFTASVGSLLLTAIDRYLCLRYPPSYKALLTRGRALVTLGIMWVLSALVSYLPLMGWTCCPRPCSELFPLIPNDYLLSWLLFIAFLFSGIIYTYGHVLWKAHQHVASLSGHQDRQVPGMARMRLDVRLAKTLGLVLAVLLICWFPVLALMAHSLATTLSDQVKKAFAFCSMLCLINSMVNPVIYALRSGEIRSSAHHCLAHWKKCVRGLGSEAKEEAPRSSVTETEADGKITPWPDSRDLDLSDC
- measurementProtocol: Displacement of [3H]CP55940 from human CB2 receptor expressed in CHOK1 cells after 1 hr by liquid scintillation counting analysis
property: pIC50
// returns pIC50 (minus log10 of molar concentration), number only

Request the reported pIC50 associated with O=C(N[C@@H]1CCCC[C@H]1O)c1cnc(OC2CCCC2)c(-c2cc(C(F)(F)F)ccc2Cl)c1 5.62

====

Read-out record for Cannabinoid receptor 2 (Homo sapiens, UniProt P34972): Ki

O=C(N[C@@H]1CCCC[C@H]1O)c1cnc(OCC2CC2)c(-c2ccc(Cl)cc2Cl)c1; > 5 µM
O=C(N[C@@H]1CCCC[C@H]1O)c1cnc(OCc2ncccn2)c(-c2ccc(Cl)cc2)c1; > 10 µM

Form field - read-out: Ki; system: Cannabinoid receptor 2 (Homo sapiens, UniProt P34972); submitted item: O=C(N[C@H]1CCCC[C@@H]1O)c1cnc(OCC2CC2)c(-c2ccc(Cl)cc2)c1 2.64 µM

Form field - read-out: Ki; system: Cannabinoid receptor 2 (Homo sapiens, UniProt P34972); submitted item: NC(=O)c1ccc(-c2cc(C(=O)N[C@@H]3CCCC[C@H]3O)cnc2OCC2CC2)cc1 > 10 µM

Form field - read-out: Ki; system: Cannabinoid receptor 2 (Homo sapiens, UniProt P34972); submitted item: CC(C)Oc1ncc(C(=O)N[C@@H]2CCCC[C@H]2O)cc1-c1ccc(Cl)cc1 > 10 µM

Form field - read-out: Ki; system: Cannabinoid receptor 2 (Homo sapiens, UniProt P34972); submitted item: O=C(N[C@@H]1CCCC[C@H]1O)c1cnc(OCC2CC2)c(-c2ccc(Cl)cc2)n1 0.801 µM

Form field - read-out: Ki; system: Cannabinoid receptor 2 (Homo sapiens, UniProt P34972); submitted item: O=C(N[C@@H]1CCCC[C@H]1O)c1cc(-c2ccc(Cl)cc2)c(OCC2CC2)cn1 1.53 µM

Form field - read-out: Ki; system: Cannabinoid receptor 2 (Homo sapiens, UniProt P34972); submitted item: O=C(N[C@@H]1CCCC[C@H]1O)c1cnc(OC2CCCC2)c(-c2ccc(Cl)cc2)c1 > 10 µM

Form field - read-out: Ki; system: Cannabinoid receptor 2 (Homo sapiens, UniProt P34972); submitted item: COc1ccc(-c2cc(C(=O)N[C@@H]3CCCC[C@H]3O)cnc2OCC2CC2)cc1 > 10 µM

Form field - read-out: Ki; system: Cannabinoid receptor 2 (Homo sapiens, UniProt P34972); submitted item: O=C(N[C@@H]1CCCC[C@H]1O)c1cnc(OCC2CC2)c(-c2ccc(C(F)(F)F)cc2)c1 > 10 µM

====

- measurementProtocol: Clearance in iv dosed rat
- Assay type: ADME, organism-based
- conditionContext: in vivo
property: clearance (mL/min/kg)
Value expressed in mL/min/kg; do not type the unit.

Request the reported clearance associated with Cc1c(C(=O)NN2CCCCC2)nn(-c2ccc(Cl)cc2Cl)c1-c1ccc(Cl)cc1 17

====

- measurementProtocol: Clearance in rat at 1 mg/kg, iv
- Format: ADME, organism-based
- Set-up: dose 1 mg/kg, route intravenous
- conditionContext: in vivo
property: clearance
Report field: quantity (unit follows the number).

Request the reported clearance associated with O=C(N[C@@H]1CCCC[C@H]1O)c1cnc(OCC2CC2)c(-c2ccc(Cl)cc2)c1 0.444 L/h/kg
